Biological target: wild type (WT) MET kinase (Homo sapiens, UniProt P08581)
Construct: purchased Carna 08-151
Sequence (P08581 25-1390): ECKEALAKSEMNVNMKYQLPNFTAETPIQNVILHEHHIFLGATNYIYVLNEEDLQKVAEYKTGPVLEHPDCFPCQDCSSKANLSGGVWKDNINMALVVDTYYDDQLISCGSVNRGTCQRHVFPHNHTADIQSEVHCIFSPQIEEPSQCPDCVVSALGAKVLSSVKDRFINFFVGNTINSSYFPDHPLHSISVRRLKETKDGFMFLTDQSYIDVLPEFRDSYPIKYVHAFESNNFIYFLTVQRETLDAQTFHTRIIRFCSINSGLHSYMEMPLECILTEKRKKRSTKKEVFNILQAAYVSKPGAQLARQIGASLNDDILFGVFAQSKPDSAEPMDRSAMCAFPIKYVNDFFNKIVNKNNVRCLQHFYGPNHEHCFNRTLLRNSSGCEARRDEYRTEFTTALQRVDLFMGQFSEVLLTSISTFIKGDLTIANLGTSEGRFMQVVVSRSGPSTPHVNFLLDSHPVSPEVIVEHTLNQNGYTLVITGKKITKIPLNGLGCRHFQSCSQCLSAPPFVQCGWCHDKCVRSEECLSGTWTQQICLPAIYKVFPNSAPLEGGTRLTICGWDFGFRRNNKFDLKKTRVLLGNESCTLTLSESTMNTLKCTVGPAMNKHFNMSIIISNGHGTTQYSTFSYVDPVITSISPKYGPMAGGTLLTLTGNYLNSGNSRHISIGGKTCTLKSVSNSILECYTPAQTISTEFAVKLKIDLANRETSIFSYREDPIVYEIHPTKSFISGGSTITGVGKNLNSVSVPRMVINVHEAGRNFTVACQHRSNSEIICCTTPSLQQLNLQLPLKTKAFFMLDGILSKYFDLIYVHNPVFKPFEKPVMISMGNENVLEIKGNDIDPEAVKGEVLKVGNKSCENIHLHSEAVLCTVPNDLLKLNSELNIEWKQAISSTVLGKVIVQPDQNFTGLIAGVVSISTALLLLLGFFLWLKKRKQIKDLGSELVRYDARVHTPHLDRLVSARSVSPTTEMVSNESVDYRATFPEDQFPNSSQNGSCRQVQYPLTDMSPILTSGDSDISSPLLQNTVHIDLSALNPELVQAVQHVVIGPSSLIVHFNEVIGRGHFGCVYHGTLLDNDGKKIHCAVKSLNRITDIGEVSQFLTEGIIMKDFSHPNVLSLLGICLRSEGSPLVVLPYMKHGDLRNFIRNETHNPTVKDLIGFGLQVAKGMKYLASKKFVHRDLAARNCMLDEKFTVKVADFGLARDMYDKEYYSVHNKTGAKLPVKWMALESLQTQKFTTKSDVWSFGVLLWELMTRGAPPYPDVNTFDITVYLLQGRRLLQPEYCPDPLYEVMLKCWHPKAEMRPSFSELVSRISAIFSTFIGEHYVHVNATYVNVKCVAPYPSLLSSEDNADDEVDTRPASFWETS
Assay: Kinase inhibition experiment (HTRF KinEASE-TK kit), wild-type MET
Type: biochemical
Details: 10 concentrations, 3-fold dilution
property_label: IC50 (nM)
One number for each entry, in nM.

| compound | IC50, nM |
| --- | --- |
| O=C(Nc1ccc(Oc2ccnc3[nH]nc(NCC(CO)CO)c23)c(F)c1)c1cccc(-c2ccc(F)cc2)[n+]1[O-] | 1.4 |

Each of the following entries comes with a recorded value; kindly state IC50 for each.
1. C[C@H](CO)Nc1n[nH]c2nccc(Oc3ccc(NC(=O)c4ccc(C(F)(F)F)c(-c5ccc(F)cc5)[n+]4[O-])cc3F)c12
2. O=C(Nc1ccc(Oc2ccnc3[nH]nc(NC4CC(CO)C4)c23)c(Cl)c1)c1cccc(-c2ccc(F)cc2)[n+]1[O-] (stereo not drawn)

Key:
1. 17.4
2. 3.3

Reference source for all entries: patent US20250092033A1
